# target or system: T1, human TSH receptor (full length), coated on tubes (human, UniProt P16473 22-764)
# T1 construct: TSHR coated tubes as described in WO2004/050708A2; The receptor is full length and held on plastic tubes through a mouse MAb to the TSHR; also called thyroid stimulating hormone receptor
# assay notes: inhibition of 125I-K1-70 Fab (competitor) binding to TSHR coated tubes; 0.1 µg/mL in HBD serum pool
Documented Inhibition of binding (%) across a set of binders
Could you give me the number in %? Just the number is fine.

query: Consider the binder shown here: K1-70 IgG (antibody, V domains shown, Human IgG1 lambda purified from hetero-hybridoma supernatant; also called human monoclonal autoantibody to the TSHR with TSH antagonist activity) VH: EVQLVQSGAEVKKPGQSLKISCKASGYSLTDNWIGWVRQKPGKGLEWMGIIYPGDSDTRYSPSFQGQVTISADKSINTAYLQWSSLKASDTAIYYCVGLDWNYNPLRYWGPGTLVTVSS VL: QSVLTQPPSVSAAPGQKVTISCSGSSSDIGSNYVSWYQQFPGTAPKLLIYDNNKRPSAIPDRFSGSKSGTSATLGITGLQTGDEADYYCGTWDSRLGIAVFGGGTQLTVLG What is its recorded Inhibition of binding (%)?
result: 66.5

query: Consider the binder shown here: K1-18 Fab (Fab, V domains shown) VH: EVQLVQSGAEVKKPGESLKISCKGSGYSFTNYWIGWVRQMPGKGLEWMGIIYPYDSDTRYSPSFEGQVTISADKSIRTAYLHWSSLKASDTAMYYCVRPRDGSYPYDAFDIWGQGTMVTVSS VL: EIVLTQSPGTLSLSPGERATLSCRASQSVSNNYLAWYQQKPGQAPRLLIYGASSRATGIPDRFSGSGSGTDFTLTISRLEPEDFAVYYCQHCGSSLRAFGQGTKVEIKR What is its recorded Inhibition of binding (%)?
result: 36.9

query: Consider the binder shown here: K1-18 IgG (antibody, V domains shown, Human IgG1 kappa purified from hetero-hybridoma supernatant; also called human monoclonal autoantibody to the TSHR with TSH agonist activity) VH: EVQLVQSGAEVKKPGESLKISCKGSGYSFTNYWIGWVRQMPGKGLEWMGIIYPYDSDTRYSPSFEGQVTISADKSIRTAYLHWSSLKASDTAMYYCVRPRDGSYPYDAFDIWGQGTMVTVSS VL: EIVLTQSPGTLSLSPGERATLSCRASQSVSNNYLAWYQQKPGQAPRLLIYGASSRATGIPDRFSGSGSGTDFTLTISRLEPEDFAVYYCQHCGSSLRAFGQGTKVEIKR What is its recorded Inhibition of binding (%)?
result: 51

query: Consider the binder shown here: K1-70 Fab (Fab, V domains shown) VH: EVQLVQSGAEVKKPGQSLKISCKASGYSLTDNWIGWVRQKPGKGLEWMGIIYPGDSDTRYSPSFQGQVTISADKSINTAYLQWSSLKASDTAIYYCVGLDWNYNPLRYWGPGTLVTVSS VL: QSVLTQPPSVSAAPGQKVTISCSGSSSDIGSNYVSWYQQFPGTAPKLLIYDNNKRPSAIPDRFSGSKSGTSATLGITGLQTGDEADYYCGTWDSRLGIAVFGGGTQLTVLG What is its recorded Inhibition of binding (%)?
result: 81.9
